System: Candida glabrata
Experiment: Antifungal activity (MIC), US NCCLS Standard Method M27-A, yeasts
Format: cell-based
Description: The antifungal activity of the compound of the invention was determined according to the US NCCLS Standard Method (M27-A, 1997) against yeasts (Candida, Cryptococcus); and according to the US NCCLS Standard Method (M38-P, 1998) against molds (Aspergillus). The result is expressed in values of MIC (minimal inhibitory concentration for growth, μg/ml) in Table 7.
Could you please report measured MIC (minimal inhibitory concentration for growth) for the items listed next?
Report the value in µg/mL with no unit label.

Provide only the value of recorded MIC (minimal inhibitory concentration for growth) for Cc1c(C(C)C)c(N2CC[C@H](N(C)C)C2)n2c(nc3ccccc32)c1C#N [Example 87] 1

Provide only the value of recorded MIC (minimal inhibitory concentration for growth) for Cc1c(CCO)c(N2CC[C@H](N(C)C)C2)n2c(nc3ccccc32)c1C#N [Example 66] 32

Provide only the value of recorded MIC (minimal inhibitory concentration for growth) for Cc1c(Cc2cccc(N)c2)c(N2CC[C@H](N(C)C)C2)n2c(nc3ccccc32)c1C#N [Example 60] 16

Provide only the value of recorded MIC (minimal inhibitory concentration for growth) for CCc1c(C)c(C#N)c2nc3ccccc3n2c1NCCN(CC)CC [Example 1] 2

// provenance: patent US20050113397A1
